Hello, the source for this data is ChEMBL document CHEMBL1136205, in case you need it.

assay: Glycogen synthase activity of HEK293 cells, inhibition of GSK3-beta; format: functional, cell-based, Homo sapiens
pEC50: −log10 of the molar value.
VALUE_KIND: pEC50

Past entries and their recorded results:
Cn1cc(C2=C(c3ccc(Cl)cc3Cl)C(=O)NC2=O)c2ccccc21: 6.70
CN1CCOCCn2cc(c3ccccc32)C2=C(C(=O)NC2=O)c2cn(c3ccccc23)CCN(C)CC1: 6.85
CN1CCN(C)CCn2cc(c3ccccc32)C2=C(C(=O)NC2=O)c2cn(c3ccccc23)CCN(C)CC1: 6.41
O=C1NC(=O)C2=C1c1cn(c3ccccc13)CCOCCN(CCO)CCOCCn1cc2c2ccccc21: 6.42

a. CCN1CCOCCn2cc(c3ccccc32)C2=C(C(=O)NC2=O)c2cn(c3ccccc23)CCOCC1
b. CN1CCCn2cc(c3ccccc32)C2=C(C(=O)NC2=O)c2cn(c3ccccc23)CCOCCOCC1
I'm curious, which of these has a smaller pEC50 number: a or b ? Response format: the label of the selected entry.
a
(a: 6.51, b: 6.82)
